Biological target: mouse CD38 (Mus musculus)
Sequence (P56528 whole entry): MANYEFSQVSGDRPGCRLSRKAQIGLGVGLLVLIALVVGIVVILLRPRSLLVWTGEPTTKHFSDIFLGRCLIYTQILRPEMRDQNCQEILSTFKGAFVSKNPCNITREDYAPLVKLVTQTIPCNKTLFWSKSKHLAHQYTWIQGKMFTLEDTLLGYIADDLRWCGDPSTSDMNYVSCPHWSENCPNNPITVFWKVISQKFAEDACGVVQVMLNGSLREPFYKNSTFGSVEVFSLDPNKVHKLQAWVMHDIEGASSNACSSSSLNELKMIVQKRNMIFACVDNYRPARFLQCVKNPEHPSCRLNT
Assay: NAD+ cyclase activity assay with mouse recombinant CD38 protein (ε-NAD fluorescence)
Details: 0.6 nM mouse CD38, substrate ε-NAD, 30 min preincubation, fluorescence 300/410 nm
pIC50: −log10 of the molar value.
Experimental endpoint: pIC50

>  <Molecule>
Cn1c(=O)c2cncn2c2cc(C(=O)N[C@@H]3CCCOC3)ccc21 [Compound 16A]

>  <Assayed system>
mouse CD38 (Mus musculus)

>  <Experimental endpoint>
pIC50

>  <Value>
< 7.00

$$$$

Shift focus to the following entry.
Note down pIC50 recorded for COCCO[C@H]1CC[C@H](NC(=O)c2cc(OC)c3c(c2)-c2cncn2CCO3)CC1 [Compound 54A] 8.00 to 9.00
